Test system: TO-N3-2 (biotin conjugate)
experiment: pull-down binding Z-score (relative to library population); higher = stronger binding
run_conditions: RNA library: Library-2
Rule: fulfilled for pull-down binding Z-score not less than 0.3, not fulfilled for anything less.

These recorded examples may help you get a feel for the data.
[[record]]
sequence_record = "UACCGAUGCCAUAGAGGUG [IAV_invivo_PB1_2_Motif_30+IAV_invivo_PB1_2_Motif_30]"
assigned_label = "not fulfilled"

[[record]]
sequence_record = "AGGGCAAGUCCAAAGGUAUACAGUUGGUCUGUUCA [hsa-mir-7107]"
assigned_label = "fulfilled"

[[record]]
sequence_record = "GGAUGGGAGACCUGACCCAUCC [hsa-mir-5195]"
assigned_label = "not fulfilled"

[[record]]
sequence_record = "CCUGCCUCAGAACUACUGAACAGAGUCACUGGGUGUGGA [hsa-mir-1289-2]"
assigned_label = "fulfilled"

[[record]]
sequence_record = "GAAUUCGAUUCAUCAAAGCGAGUC [hsa-mir-485]"
assigned_label = "not fulfilled"


Incoming: Does the sequence UGAAGAAGAGUAUUGAUUGUGCUGUUCG [hsa-mir-6788] have recorded pull-down binding Z-score that is 0.3 or more?
Outgoing: not fulfilled

Incoming: Does the sequence GAAGGAAGGCAAGGCUGUCUGUCCAUC [hsa-mir-4800] have recorded pull-down binding Z-score that is 0.3 or more?
Outgoing: fulfilled

Incoming: Does the sequence AGGCCAUACGUGUUGGAGAUU [hsa-mir-4461] have recorded pull-down binding Z-score that is 0.3 or more?
Outgoing: fulfilled

Incoming: Does the sequence GGCAGAAAUGUC [hsa-mir-8053] have recorded pull-down binding Z-score that is 0.3 or more?
Outgoing: not fulfilled

Incoming: Does the sequence UGGUAAUGCUGCUAUCAGCGAUUAUGACUACUAUCGUUAUAAUCUACCA have recorded pull-down binding Z-score that is 0.3 or more?
Outgoing: not fulfilled

Incoming: Does the sequence UUUGCUGUUGAACGUAGUGGUAA [hsa-mir-548ar] have recorded pull-down binding Z-score that is 0.3 or more?
Outgoing: fulfilled

---

Test system: TO-N3 (biotin conjugate)
experiment: pull-down binding Z-score (relative to library population); higher = stronger binding
run_conditions: RNA library: Library-2
measured_attribute: pull-down binding Z-score
Could you keep your reply to the number by itself?

[[record]]
sequence_record = "UGGAGGGGGUUUGUUUGCUUAUUCCCCUCU [hsa-mir-6737]"
endpoint_result = 0.918


Lab note: AGGUAGUGAUAUGUGCAUCUACU [hsa-mir-17] gave pull-down binding Z-score of 0.31

Lab note: GAGGAUGCAGGAGAGGAAGGGGGCUUCUUUUUGACGCCUACUUCAUCAGCUGCUCCUC [hsa-mir-4330] gave pull-down binding Z-score of 2.26

Lab note: AUGAGUACGAACUUAUGUACUCAU gave pull-down binding Z-score of -0.309

Lab note: UGGCAUGGAAGUCA [DMSMaPseq_invitro_SARS-CoV-2_Motif_525] gave pull-down binding Z-score of -0.262

Lab note: GGGAGCAAACCC [IAV_invivo_PB1_2_Motif_31+IAV_invivo_PB1_2_Motif_31] gave pull-down binding Z-score of -0.425

Lab note: UGAGGUUUACUAUGGAACCUCA [hsa-mir-4465] gave pull-down binding Z-score of -0.958

Lab note: GGUGUUUUAACU gave pull-down binding Z-score of -0.303

---

Examples of sequences with documented pull-down binding Z-score follow.
Test system: TO-N3 (biotin conjugate)
experiment: pull-down binding Z-score (relative to library population); higher = stronger binding
run_conditions: RNA library: Library-2
Could you keep your reply to the number by itself?

Noted pull-down binding Z-score for GCGCUGCCAGAAACUGGCAAAGCGC [bulge-AA] , tested on TO-N3 (biotin conjugate): -0.403

Noted pull-down binding Z-score for CACGCAUUUGCUUUACUUGCAAUGAUUAUA [hsa-mir-300] , tested on TO-N3 (biotin conjugate): 0.583

Noted pull-down binding Z-score for GGCUUCAUCAAACAAUAUGGUGAUUGCC , tested on TO-N3 (biotin conjugate): -0.484

Noted pull-down binding Z-score for GGAACCUAGUAAUAGGUUUCC [DMSMaPseq_invitro_SARS-CoV-2_Motif_479] , tested on TO-N3 (biotin conjugate): 0.439

Noted pull-down binding Z-score for GAGGCUAUGUACACACCGCAUACAGUCUUACAGGCUGUUGGGGCUUGUGUUCUUUGCAAUUC [SHAPE_invitro_SARS-CoV-2_Motif_296] , tested on TO-N3 (biotin conjugate): 0.112

Noted pull-down binding Z-score for AGUGUUGUUUUUUCCCCCGCCAAUAUU [hsa-mir-92b] , tested on TO-N3 (biotin conjugate): -0.16

---

System: TO-3-N3-2 (biotin conjugate)
experiment: pull-down binding Z-score (relative to library population); higher = stronger binding
run_conditions: RNA library: Library-2
Rule: MET for pull-down binding Z-score not less than -0.05, NOT MET for anything less.

These recorded examples may help you get a feel for the data.
[[record]]
sequence_record = "UCCUUUGACAUGAGUAAUGAAGGAUCUUAUUUCUUCGGAGACAAUGCAGAGGA [IAV_invivo_NP_5_Motif_26+IAV_invivo_NP_5_Motif_26]"
assigned_label = "NOT MET"

[[record]]
sequence_record = "ACUUAAGCACCAGGUAAAAUCUGGUGCUUAAGU [hsa-mir-4720]"
assigned_label = "NOT MET"

[[record]]
sequence_record = "CAAGGACCUGCCUAAAGAAAUCACUGUUGCUACAUCACGAACGCUUUCUUAUUACAAAUUGGGAGCUUCGCAGCGUGUAGCAGGUGACUCAGGUUUUG [DMSMaPseq_invitro_SARS-CoV-2_Motif_486]"
assigned_label = "NOT MET"

[[record]]
sequence_record = "UGUCUUUUUUUUUUUCUGAGACA [hsa-mir-1273c]"
assigned_label = "MET"

[[record]]
sequence_record = "CCUCUUGAGUGCAUUAAAGACCUUCUAGCACGUGCUGGUAAAGCUUCAUGCACUUUGUCCGAACAACUGGACUUUAUUGACACUAAGAGG [SHAPE_invitro_SARS-CoV-2_Multi_2_ComplexLevel_1]"
assigned_label = "NOT MET"


Incoming: Does the sequence UGCAACGAUACCGAUACAAGCCUCACUCCCUUUCGGAUGGCUUAUUGUUGGCGUUGCA have recorded pull-down binding Z-score that is -0.05 or more?
Outgoing: NOT MET

Incoming: Does the sequence UAGACAAUGGUUUCAUCAUUUCGUCUG [hsa-mir-4427] have recorded pull-down binding Z-score that is -0.05 or more?
Outgoing: NOT MET

Incoming: Does the sequence UCUGUUGUCUGAAAGAAAACA [hsa-mir-518b_518c] have recorded pull-down binding Z-score that is -0.05 or more?
Outgoing: MET

Incoming: Does the sequence CCAGGCCACAUAAUGAGCCAAA [hsa-mir-6771] have recorded pull-down binding Z-score that is -0.05 or more?
Outgoing: MET

Incoming: Does the sequence AUGGUUAUCUUACUUCUUCUUCUAAAACACCUGAAGAACAUUUUAUUGAAACCAU have recorded pull-down binding Z-score that is -0.05 or more?
Outgoing: MET

Incoming: Does the sequence GCUUUAUGUCCUGACCCAGCUAAAGC [hsa-mir-22] have recorded pull-down binding Z-score that is -0.05 or more?
Outgoing: NOT MET

Incoming: Does the sequence CUGUAGCUGCAUUUCACCAAGAAUGUAGUUUACAG [DMSMaPseq_invitro_SARS-CoV-2_Motif_500] have recorded pull-down binding Z-score that is -0.05 or more?
Outgoing: MET

---

Examples of sequences with documented pull-down binding Z-score follow.
Tested on: TO-3-N3-2 (biotin conjugate)
experiment: pull-down binding Z-score (relative to library population); higher = stronger binding
run_conditions: RNA library: Library-2
Could you keep your reply to the number by itself?

Examples from the recorded data:
[[record]]
sequence_record = "CACUAAUGUGAUUAAUGUUGUUGUG [hsa-mir-3657]"
measured_attribute = "pull-down binding Z-score"
endpoint_result = -0.0793

[[record]]
sequence_record = "UGUGACCUGGAGCAGCUCAGGAGGGCUUCCUGGGUGAGGUGGCAGGUUACA [hsa-mir-4311]"
measured_attribute = "pull-down binding Z-score"
endpoint_result = 0.183

[[record]]
sequence_record = "GGAUUUCUGGACAUUUGGACAUAUAAUGCAGAAUUGUUAGUUCUACUGGAAAAUGAAAGGACUCUGGAUUUCC [IAV_invivo_HA_4_Motif_17+IAV_invivo_HA_4_Motif_17]"
measured_attribute = "pull-down binding Z-score"
endpoint_result = 0.4


Lab note: CGGACACCCGGCCUCCACUUUCUGUGGCAGGUACCUCCUCCA [hsa-mir-4505] gave pull-down binding Z-score of 0.209

Lab note: AACUGAAAGUAAACCUUCAGUU gave pull-down binding Z-score of -0.384

Lab note: CGCUGCCUGGAAUUAACCCCGCUGUG [hsa-mir-636] gave pull-down binding Z-score of -0.249
